system_name: UniProt:P43490
assay_method_text: Enzyme Assay and NMN Detection (NAMPT reaction, fluorescence detection of NMN)
Type: biochemical
condition_notes: Table B-4; NAMPT activation, NMN formation
Experimental: NAMPT reaction was performed in 50 mM HEPES, pH 7.5, containing 5 mM MgCl2, 0.1% Prionex, 0.005% Tween 20, and 1 mM TCEP at room temperature in Greiner 384-well black polypropylene plates. […] The fluorescence (ex380/em460) was measured following another short incubation and 30 min incubation. The increased concentration of NMN was determined from a calibration curve obtained at the time of experiment.
This listing pairs compounds with measured EC50.

compound_structure | EC50
CN1CCC(S(=O)(=O)c2ccc(NC(=O)NCc3cn[nH]c3)cc2)CC1 | 2000 to 5000 nM
O=C(NCc1cn[nH]c1)Nc1ccc(S(=O)(=O)c2ccc(F)c(F)c2)cc1 | 100 to 2000 nM
Cn1nc(-c2ccc(NC(=O)NCc3cn[nH]c3)cc2)c2ccncc21 | 2000 to 5000 nM
Cn1nc(-c2ccc(NC(=O)NCc3cn[nH]c3)cc2)c2cccnc21 | 100 to 2000 nM
COc1ccc2c(c1)c(-c1ccc(NC(=O)NCc3cn[nH]c3)cc1)nn2C | 100 to 2000 nM
O=C(NCc1cn[nH]c1)Nc1ccc(S(=O)(=O)c2ccc(F)cc2)cc1 | < 100 nM
O=C(NCc1cn[nH]c1)Nc1ccc(S(=O)(=O)c2ccccc2F)cc1 | < 100 nM
COc1ccccc1-c1csc(Nc2ccc(NC(=O)NCc3cn[nH]c3)cc2)n1 | 100 to 2000 nM
COc1ccccc1-c1ccccc1S(=O)(=O)c1ccc(NC(=O)NCc2cn[nH]c2)cc1 | 5000 to 20000 nM
O=C(NCc1cn[nH]c1)Nc1ccc(S(=O)(=O)c2ccccc2-c2ccccc2)cc1 | < 100 nM
O=C(NCc1cn[nH]c1)Nc1ccc(S(=O)(=O)C2CCN(C3CCOCC3)CC2)cc1 | 100 to 2000 nM
CC(C)CN1CCC(S(=O)(=O)c2ccc(NC(=O)NCc3cn[nH]c3)cc2)CC1 | 2000 to 5000 nM
Cn1nc(-c2ccc(NC(=O)NCc3cn[nH]c3)cc2)c2cnccc21 | 2000 to 5000 nM
Cc1ccc(-c2ccccc2S(=O)(=O)c2ccc(NC(=O)NCc3cn[nH]c3)cc2)cc1 | 5000 to 20000 nM
Cc1cccc(-c2ccccc2S(=O)(=O)c2ccc(NC(=O)NCc3cn[nH]c3)cc2)c1 | 100 to 2000 nM
COc1ccc(-c2csc(Nc3ccc(NC(=O)NCc4cn[nH]c4)cc3)n2)cc1 | 100 to 2000 nM
N#Cc1cccc(-c2ccccc2S(=O)(=O)c2ccc(NC(=O)NCc3cn[nH]c3)cc2)c1 | 5000 to 20000 nM
O=C(NCc1cn[nH]c1)Nc1ccc(S(=O)(=O)c2cccc(I)c2)cc1 | < 100 nM
O=C(NCc1cn[nH]c1)Nc1ccc(Nc2nc(-c3ccccc3Cl)cs2)cc1 | 5000 to 20000 nM
Cn1nc(-c2ccc(NC(=O)NCc3cn[nH]c3)cc2)c2cc(Cl)ccc21 | 100 to 2000 nM

###

Listed next: entries and their corresponding EC50.
system_name: NAMPT enzyme (Homo sapiens (Human), UniProt P43490)
Sequence (P43490 whole entry, species assumed): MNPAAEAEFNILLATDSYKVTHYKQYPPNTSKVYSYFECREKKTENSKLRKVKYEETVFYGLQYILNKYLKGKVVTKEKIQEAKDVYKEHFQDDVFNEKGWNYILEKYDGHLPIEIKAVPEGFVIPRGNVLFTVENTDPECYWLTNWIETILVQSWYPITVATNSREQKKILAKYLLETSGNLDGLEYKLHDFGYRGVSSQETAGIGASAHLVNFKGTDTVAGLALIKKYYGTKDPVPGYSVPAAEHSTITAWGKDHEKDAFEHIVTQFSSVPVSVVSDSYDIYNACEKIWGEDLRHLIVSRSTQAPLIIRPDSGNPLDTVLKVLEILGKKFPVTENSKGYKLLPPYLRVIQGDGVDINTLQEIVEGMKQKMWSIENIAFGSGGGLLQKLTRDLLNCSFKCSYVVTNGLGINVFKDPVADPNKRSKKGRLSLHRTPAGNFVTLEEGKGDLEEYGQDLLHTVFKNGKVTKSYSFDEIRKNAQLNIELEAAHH
assay_method_text: Enzyme Assay and NMN Detection (NAMPT reaction, fluorescence detection of NMN)
Format: biochemical
condition_notes: Table B-4; NAMPT activation, NMN formation

compound_structure | EC50
O=C(NCc1cn[nH]c1)Nc1ccc(Nc2nc(-c3cccc(F)c3)cs2)cc1 | 100 to 2000 nM
O=C(NCc1cn[nH]c1)Nc1ccc(S(=O)(=O)c2ccc(Cl)cc2Cl)cc1 | 100 to 2000 nM
O=C(NCc1cn[nH]c1)Nc1ccc(S(=O)(=O)c2ccncc2)cc1 | 100 to 2000 nM
O=C(NCc1cn[nH]c1)Nc1ccc(NS(=O)(=O)Cc2ccc(Cl)cc2)cc1 | < 100 nM
Cc1ccccc1-c1csc(Nc2ccc(NC(=O)NCc3cn[nH]c3)cc2)n1 | 100 to 2000 nM
O=C(NCc1cn[nH]c1)Nc1ccc(-c2ncc(-c3ccccc3)s2)cc1 | 5000 to 20000 nM
O=C(NCc1cn[nH]c1)Nc1ccc(S(=O)(=O)c2cccc(-c3ccccc3)c2)cc1 | 100 to 2000 nM
O=C(NCc1cn[nH]c1)Nc1ccc(S(=O)(=O)c2ccccc2-c2cccnc2)cc1 | 100 to 2000 nM
O=C(NCc1cn[nH]c1)Nc1ccc(S(=O)(=O)c2ccc(OC(F)(F)F)cc2)cc1 | 100 to 2000 nM
O=C(NCc1cn[nH]c1)Nc1ccc(S(=O)(=O)c2ccccc2C(F)(F)F)cc1 | 100 to 2000 nM
COc1cccc(-c2ccccc2S(=O)(=O)c2ccc(NC(=O)NCc3cn[nH]c3)cc2)c1 | 2000 to 5000 nM
O=C(NCc1cn[nH]c1)Nc1ccc(Nc2nc(-c3ccccc3F)cs2)cc1 | 100 to 2000 nM
Cc1ccccc1-c1ccccc1S(=O)(=O)c1ccc(NC(=O)NCc2cn[nH]c2)cc1 | 100 to 2000 nM
O=C(NCc1cn[nH]c1)Nc1ccc(S(=O)(=O)c2ccccc2-c2ccccc2Cl)cc1 | 100 to 2000 nM
Cc1ccc(S(=O)(=O)c2ccc(NC(=O)NCc3cn[nH]c3)cc2)cc1 | 100 to 2000 nM
Cn1nc(-c2ccc(NC(=O)NCc3cn[nH]c3)cc2)c2cc(F)ccc21 | 100 to 2000 nM
COc1cccc(-c2csc(Nc3ccc(NC(=O)NCc4cn[nH]c4)cc3)n2)c1 | 100 to 2000 nM
O=C(NCc1cn[nH]c1)Nc1ccc(S(=O)(=O)NCc2cccc(F)c2)cc1 | 100 to 2000 nM
O=C(NCc1cn[nH]c1)Nc1ccc(-c2nc3ccccc3s2)cc1 | 5000 to 20000 nM
O=C(NCc1cn[nH]c1)Nc1ccc(Nc2nc(-c3cccc(Cl)c3)cs2)cc1 | 2000 to 5000 nM

###

system_name: NAMPT enzyme (Homo sapiens (Human))
assay_method_text: Enzyme Assay and NMN Detection (NAMPT reaction, fluorescence detection of NMN)
Type: biochemical
condition_notes: Table B-2; NAMPT activation, NMN formation
pEC50: −log10 of the molar value.

compound | system_name | pEC50
O=C(NCc1ccncc1)Nc1ccc(C(=O)Nc2cccnc2)cc1 | NAMPT enzyme (Homo sapiens (Human)) | < 4.70
O=C(NCc1ccncc1)Nc1cccc(S(=O)(=O)N2CCOCC2)c1 | NAMPT enzyme (Homo sapiens (Human)) | < 4.70
O=C(NCc1ccncc1)Nc1cccc(S(=O)(=O)NCCc2ccccc2)c1 | NAMPT enzyme (Homo sapiens (Human)) | < 4.70
O=C(NCc1ccncc1)Nc1ccc(NS(=O)(=O)c2ccc(Cl)cc2)cc1 | NAMPT enzyme (Homo sapiens (Human)) | > 7.00
COCc1ccc(NC(=O)c2ccc(NC(=O)NCc3ccncc3)cc2)cc1 | NAMPT enzyme (Homo sapiens (Human)) | < 4.70
CC(NS(=O)(=O)c1ccc(NC(=O)NCc2ccncc2)cc1)C1CCC1 (stereo not shown) | NAMPT enzyme (Homo sapiens (Human)) | 5.70 to 7.00
CN(C)Cc1ccc(CNS(=O)(=O)c2ccc(NC(=O)NCc3ccncc3)cc2)cc1 | NAMPT enzyme (Homo sapiens (Human)) | > 7.00
O=C(NCc1ccncc1)Nc1ccc(OC(F)(F)F)cc1 | NAMPT enzyme (Homo sapiens (Human)) | < 4.70
CNS(=O)(=O)c1ccc(NC(=O)NCc2ccncc2)cc1 | NAMPT enzyme (Homo sapiens (Human)) | 5.30 to 5.70
COc1ccccc1S(=O)(=O)c1ccc(NC(=O)NCc2ccncc2)cc1 | NAMPT enzyme (Homo sapiens (Human)) | > 7.00
CN1CCN(CCNS(=O)(=O)c2ccc(NC(=O)NCc3ccncc3)cc2)CC1 | NAMPT enzyme (Homo sapiens (Human)) | 5.70 to 7.00
COc1ccc(NC(=O)c2ccc(NC(=O)NCc3ccncc3)cc2)cc1 | NAMPT enzyme (Homo sapiens (Human)) | 5.70 to 7.00
O=C(NCc1ccncc1)Nc1ccc(C(=O)N2Cc3ccccc3C2)cc1 | NAMPT enzyme (Homo sapiens (Human)) | < 4.70
CN(C)c1ccc(CNS(=O)(=O)c2ccc(NC(=O)NCc3ccncc3)cc2)cc1 | NAMPT enzyme (Homo sapiens (Human)) | 5.70 to 7.00
CCN1CCCC1CNS(=O)(=O)c1ccc(NC(=O)NCc2ccncc2)cc1 (stereo not shown) | NAMPT enzyme (Homo sapiens (Human)) | 5.70 to 7.00
O=C(NCc1ccncc1)Nc1ccc(S(=O)(=O)N2CCOCC2)cc1 | NAMPT enzyme (Homo sapiens (Human)) | 5.70 to 7.00
CC(C)Oc1ccc(NC(=O)c2ccc(NC(=O)NCc3ccncc3)cc2)cc1 | NAMPT enzyme (Homo sapiens (Human)) | 5.70 to 7.00
CCOC(=O)c1ccc(NC(=O)NCc2ccnc(N)c2)cc1 | NAMPT enzyme (Homo sapiens (Human)) | < 4.70
O=C(NCc1ccncc1)Nc1ccc(NS(=O)(=O)Cc2ccc(Cl)cc2)cc1 | NAMPT enzyme (Homo sapiens (Human)) | > 7.00
CN(CCO)S(=O)(=O)c1ccc(NC(=O)NCc2ccncc2)cc1 | NAMPT enzyme (Homo sapiens (Human)) | 5.70 to 7.00
COc1cccc(CNS(=O)(=O)c2ccc(NC(=O)NCc3ccncc3)cc2)c1 | NAMPT enzyme (Homo sapiens (Human)) | 5.70 to 7.00
O=C(NCc1ccncc1)Nc1ccc(S(=O)(=O)N2CCc3ccccc3C2)cc1 | NAMPT enzyme (Homo sapiens (Human)) | 5.70 to 7.00
CCCN(C)C(=O)c1ccc(NC(=O)NCc2ccncc2)cc1 | NAMPT enzyme (Homo sapiens (Human)) | 4.70 to 5.30
O=C(NCc1ccncc1)Nc1ccc(C(=O)Nc2ccccc2Cl)cc1 | NAMPT enzyme (Homo sapiens (Human)) | 5.70 to 7.00
CN1CCC(NS(=O)(=O)c2ccc(NC(=O)NCc3ccncc3)cc2)C1 (stereo not shown) | NAMPT enzyme (Homo sapiens (Human)) | 5.30 to 5.70
COc1ccccc1NS(=O)(=O)c1ccc(NC(=O)NCc2ccncc2)cc1 | NAMPT enzyme (Homo sapiens (Human)) | 5.70 to 7.00
O=C(NCc1ccncc1)Nc1ccc(C(=O)NCC2CC2)cc1 | NAMPT enzyme (Homo sapiens (Human)) | 5.30 to 5.70
Cc1cccc(NC(=O)c2ccc(NC(=O)NCc3ccncc3)cc2)c1 | NAMPT enzyme (Homo sapiens (Human)) | 5.70 to 7.00
O=C(NCc1ccncc1)Nc1ccc(S(=O)(=O)Nc2ccccc2Cl)cc1 | NAMPT enzyme (Homo sapiens (Human)) | 5.70 to 7.00
O=C(NCc1ccncc1)Nc1ccc(S(=O)(=O)NCc2ccccc2F)cc1 | NAMPT enzyme (Homo sapiens (Human)) | 5.70 to 7.00
O=C(NCc1ccncc1)Nc1ccc(C(=O)NCc2ccccc2F)cc1 | NAMPT enzyme (Homo sapiens (Human)) | 5.30 to 5.70
CCCN(Cc1ccccc1)S(=O)(=O)c1ccc(NC(=O)NCc2ccncc2)cc1 | NAMPT enzyme (Homo sapiens (Human)) | > 7.00
O=C(NCc1ccncc1)Nc1ccc(S(=O)(=O)NCc2ccc(OC(F)(F)F)cc2)cc1 | NAMPT enzyme (Homo sapiens (Human)) | 5.70 to 7.00
COC(=O)c1ccc(CNS(=O)(=O)c2ccc(NC(=O)NCc3ccncc3)cc2)cc1 | NAMPT enzyme (Homo sapiens (Human)) | 5.70 to 7.00
CCCCNC(=O)c1ccc(NC(=O)NCc2ccncc2)cc1 | NAMPT enzyme (Homo sapiens (Human)) | 5.70 to 7.00
COCc1ccc(CNS(=O)(=O)c2ccc(NC(=O)NCc3ccncc3)cc2)cc1 | NAMPT enzyme (Homo sapiens (Human)) | 5.70 to 7.00
O=C(NCc1ccncc1)Nc1ccc(S(=O)(=O)NC2CCCCC2)cc1 | NAMPT enzyme (Homo sapiens (Human)) | 5.70 to 7.00
Cc1cccc(CNC(=O)c2ccc(NC(=O)NCc3ccncc3)cc2)c1 | NAMPT enzyme (Homo sapiens (Human)) | < 4.70
O=C(NCc1ccncc1)Nc1ccc(S(=O)(=O)N(Cc2ccccc2)C2CC2)cc1 | NAMPT enzyme (Homo sapiens (Human)) | > 7.00
CCOC(=O)c1ccc(NC(=O)NCc2ccncc2Cl)cc1 | NAMPT enzyme (Homo sapiens (Human)) | < 4.70
O=C(NCc1ccncc1)Nc1ccc(C(=O)NCCc2ccccc2)cc1 | NAMPT enzyme (Homo sapiens (Human)) | 5.70 to 7.00
O=C(NCc1ccncc1)Nc1ccc(C(=O)NCc2ccc(Cl)cc2)cc1 | NAMPT enzyme (Homo sapiens (Human)) | < 4.70
Cc1ccc(CCNC(=O)c2ccc(NC(=O)NCc3ccncc3)cc2)cc1 | NAMPT enzyme (Homo sapiens (Human)) | 5.70 to 7.00
